# Test system: clinically healthy volunteers
# measurement description: Oxygen carrying capacity of plasma lipoproteins (OCCL) by catalymetry assay, one-month intake, Example 2.4
# Assay type: in vivo, human
# experimental setup: 0 w (prior the trial)
property label: OCCL

Task: Param item = CC/C=C\C/C=C\C/C=C\C/C=C\C/C=C\C/C=C\CCC(=O)O ; retrieve measured OCCL.
Result: 626 ± 34 ΔE at λ = 560 nm × 10^3

* * *

Quick list: OCCL per entry.
# Tested on: clinically healthy volunteers
# measurement description: Oxygen carrying capacity of plasma lipoproteins (OCCL) by catalymetry assay, one-month intake, Example 2.4
# Assay type: in vivo, human
# experimental setup: 4 w, daily dose in 1 capsule with main meal

* COC1=C(OC)C(=O)C(C/C=C(\C)CC/C=C(\C)CC/C=C(\C)CC/C=C(\C)CC/C=C(\C)CC/C=C(\C)CC/C=C(\C)CC/C=C(\C)CC/C=C(\C)CCC=C(C)C)=C(C)C1=O | 593 ± 64 ΔE at λ = 560 nm × 10^3
* CC(C)=CCC/C(C)=C/C=C/C(C)=C/C=C/C(C)=C/C=C/C=C(C)/C=C/C=C(C)/C=C/C=C(\C)CCC=C(C)C | 786 ± 39 ΔE at λ = 560 nm × 10^3

# ---- query molecule ----
Task: API: value(readout=OCCL, system=clinically healthy volunteers) for record CC/C=C\C/C=C\C/C=C\C/C=C\C/C=C\C/C=C\CCC(=O)O
Result: 639 ± 42 ΔE at λ = 560 nm × 10^3

* * *

# Tested on: clinically healthy volunteers
# measurement description: Oxygen carrying capacity of plasma lipoproteins (OCCL) by catalymetry assay, one-month intake, Example 2.4
# Type: in vivo, human
# experimental setup: 4 w, daily dose in 1 capsule with main meal
# Experimental: 6 healthy volunteers (HV, 42-61 years old) and 4 CAD patients, eligible for the treadmill test (age 45-59 years old) were recruited for this study. Apart from assessing changes their electrocardiogram (ECG), pulse and blood pressure, samples and level of oxygen carrying capacity of plasma lipoproteins, OCCL, from venous blood was analyzed prior to the test and within 3-4 minutes afterward. The measurement was conducted using a catalymetry assay. […]
property label: OCCL

# annotated cases, reported OCCL shown
* CC1=C(/C=C/C(C)=C/C=C/C(C)=C/C=C/C=C(C)/C=C/C=C(C)/C=C/C2=C(C)C(=O)[C@@H](O)CC2(C)C)C(C)(C)C[C@H](O)C1=O | 770 ± 57 ΔE at λ = 560 nm × 10^3
* CCC(C)(C)C(=O)O[C@H]1C[C@@H](C)C=C2C=C[C@H](C)[C@H](CC[C@@H]3C[C@@H](O)CC(=O)O3)[C@H]21 [Simvastatin, reference compound] | 504 ± 53 ΔE at λ = 560 nm × 10^3

# ---- query compound ----
Task: API: value(readout=OCCL, system=clinically healthy volunteers) for record C=C1CC[C@H](O)C/C1=C/C=C1\CCC[C@]2(C)[C@@H]([C@H](C)CCCC(C)C)CC[C@@H]12
Result: 443 ± 51 ΔE at λ = 560 nm × 10^3

* * *

# Tested on: clinically healthy volunteers
# measurement description: Oxygen carrying capacity of plasma lipoproteins (OCCL) by catalymetry assay, one-month intake, Example 2.4
# Assay type: in vivo, human
# experimental setup: 0 w (prior the trial)
Quick list: OCCL per entry.

* CC1=C(/C=C/C(C)=C/C=C/C(C)=C/C=C/C=C(C)/C=C/C=C(C)/C=C/C2=C(C)C(=O)[C@@H](O)CC2(C)C)C(C)(C)C[C@H](O)C1=O | 539 ± 52 ΔE at λ = 560 nm × 10^3
* CCC(C)(C)C(=O)O[C@H]1C[C@@H](C)C=C2C=C[C@H](C)[C@H](CC[C@@H]3C[C@@H](O)CC(=O)O3)[C@H]21 [Simvastatin, reference compound] | 451 ± 51 ΔE at λ = 560 nm × 10^3
* CC(C)=CCC/C(C)=C/C=C/C(C)=C/C=C/C(C)=C/C=C/C=C(C)/C=C/C=C(C)/C=C/C=C(\C)CCC=C(C)C | 648 ± 41 ΔE at λ = 560 nm × 10^3
* COC1=C(OC)C(=O)C(C/C=C(\C)CC/C=C(\C)CC/C=C(\C)CC/C=C(\C)CC/C=C(\C)CC/C=C(\C)CC/C=C(\C)CC/C=C(\C)CC/C=C(\C)CCC=C(C)C)=C(C)C1=O | 505 ± 66 ΔE at λ = 560 nm × 10^3

Task: Param item = C=C1CC[C@H](O)C/C1=C/C=C1\CCC[C@]2(C)[C@@H]([C@H](C)CCCC(C)C)CC[C@@H]12 ; retrieve measured OCCL.
Result: 412 ± 48 ΔE at λ = 560 nm × 10^3
